List of normalized growth values.
procedure_text: chemical genetic growth profiling, strain panel (AID 1159580);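 note: tested at 20 µM; growth read once vehicle control cultures reached saturation at 30 °C; 1 = growth at the plate median or of vehicle wells; lower values mean less growth of the strain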
protocol_conditions: S. cerevisiae deletion strains, growth OD, locus YMR231W, strain pep5, active compounds read low
About 2,000 (36%) of roughly 5,500 compounds were called active. Another 18% or so got no clear call; they are omitted. The list shows a part of the results.
Please give only the number in your answer, with no unit.

Sample records with normalized growth:
CN(C)C(=O)Oc1cc(OC(=O)N(C)C)cc(C(O)CNC(C)(C)C)c1 (stereo not given)    1.03
COc1cc([C@@H]2c3cc4c(cc3[C@H](OC(C)=O)[C@H]3COC(=O)[C@H]23)OCO4)cc(OC)c1OC    0.997
COC(=O)C1=C(C)NC(C)=C(C(=O)OCC(C)C)C1c1ccccc1[N+](=O)[O-] (stereo not given)    0.141
COCCOC(=O)C1=C(C)NC(C)=C(C(=O)OC(C)C)C1c1cccc([N+](=O)[O-])c1 (stereo not given)    1.01

Given the compound `C/C(=C\C(=O)OCCCCCCCCC(=O)O)C[C@@H]1OC[C@H](C[C@@H]2O[C@H]2[C@@H](C)[C@H](C)O)[C@@H](O)[C@H]1O` , write its reported normalized growth.
0.961

Given the compound `O=C1CN2Cc3c(ccc(Cl)c3Cl)N=C2N1` , write its reported normalized growth.
0.968

Given the compound `CC(C)(Oc1ccc(Cl)cc1)C(=O)O` , write its reported normalized growth.
0.999

Given the compound C=CCCCCCCCCCCCC(O)CC(O)CO (stereo not given) , write its reported normalized growth.
0.995

Given the compound `CCCCCCCCCCCCCCCC[n+]1ccccc1` , write its reported normalized growth.
0.0645

Given the compound `O=c1c(-c2ccccc2)coc2cc(O)cc(O)c12` , write its reported normalized growth.
1

====

procedure_text: chemical genetic growth profiling, strain panel (AID 1159580);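 note: tested at 20 µM; growth read once vehicle control cultures reached saturation at 30 °C; 1 = growth at the plate median or of vehicle wells; lower values mean less growth of the strain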
protocol_conditions: S. cerevisiae deletion strains, growth OD, locus YMR205C, strain PFK2 (second series), active compounds read low
Hit rate of the full screen: of about 5,500 compounds, about 2,000 (36%) were called active. Roughly 18% stayed inconclusive and do not appear here. The list shows a part of the results.
List of normalized growth values.
Please give only the number in your answer, with no unit.

N=c1ccc2nc3c(Cl)c4c(c(Cl)c3oc-2c1S(=O)(=O)O)Nc1ccc(N)c(S(=O)(=O)O)c1O4    1.02
C#Cc1cccc(N=Cc2cc(Cl)cc(Br)c2O)c1    0.12

We now examine a further compound.
Given the compound `Clc1ccc(-c2csc(Nc3ccccc3)n2)s1` , write its reported normalized growth.
0.578

====

procedure_text: chemical genetic growth profiling, strain panel (AID 1159580);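 note: tested at 20 µM; growth read once vehicle control cultures reached saturation at 30 °C; 1 = growth at the plate median or of vehicle wells; lower values mean less growth of the strain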
protocol_conditions: S. cerevisiae deletion strains, growth OD, locus YOR316C, strain cot1, active compounds read low
Among all 5,500 compounds or so, about 2,000 (36%) were called active. Another 18% or so got no clear call; they are omitted. The list shows a part of the results.
parameter_measured: normalized growth
Please give only the number in your answer, with no unit.

Sample records with normalized growth:
C=C1C(N)CC2CC1C2(C)C (stereo not drawn)    1.02
NCCc1ccc(O)cc1    1
CCN(CCCCOC(=O)c1ccc(OC)c(OC)c1)C(C)Cc1ccc(OC)cc1 (stereo not drawn)    0.992
CCCCC1C(=O)N(c2ccccc2)N(c2ccccc2)C1=O    0.986
CC(N)Cc1ccc(O)cc1 (stereo not drawn)    1.02

Given the molecule `COc1cc([C@@H]2c3cc4c(cc3[C@H](OC(C)=O)[C@H]3COC(=O)[C@H]23)OCO4)cc(OC)c1OC` , write its reported normalized growth.
0.992

Given the molecule C=C1C2CC[C@@]3(C)[C@H](c4ccoc4)OC(=O)C[C@]13O[C@H]1CC(=O)C(C)(C)[C@H](C(O)C(=O)OC)[C@@]21C (stereo partly drawn) , write its reported normalized growth.
1.01

Given the molecule `CCn1cc(C(=O)O)c(=O)c2cc(F)c(N3CCNCC3)cc21` , write its reported normalized growth.
1.01

Given the molecule `O=C(O)c1nc2cc(Cl)c(Cl)cc2[nH]c1=O` , write its reported normalized growth.
0.987
